assay.remarks: physchem
particulars: pH 9.7, aqueous with cosolvent or surfactant or cyclodextrin, Solubility

| compound | solubility / mg/mL |
| --- | --- |
| COc1ccc(Cl)cc1C(=O)NCCc1ccc(S(=O)(=O)NC(=O)NC2CCCCC2)cc1 [Glibenclamide] | 18.3 |

* * *

assay.remarks: Glibenclamide solubility at various pH in PEG 300/ethanol/meglumine buffer (Table 2, FIG. 1)
Type: physicochemical
particulars: aqueous with cosolvent or surfactant or cyclodextrin; PEG 300/Ethanol/100 mM Meglumine 40%/10%/50% (final 50 mM); nominal pH 8.0, actual pH 5.3
measure: solubility (µg/mL)

| compound | measure | unit.tag | numeric.value |
| --- | --- | --- | --- |
| COc1ccc(Cl)cc1C(=O)NCCc1ccc(S(=O)(=O)NC(=O)NC2CCCCC2)cc1 [Glibenclamide] | solubility | µg/mL | 90 |
